From: patent US20200079876A1

- subject of test: T1, purified human activated C1s protein, two-chain form (Homo sapiens, UniProt P09871 16-688)
- T1 construct: Purified protein bought from EMD Millipore; Biotin-labeled in the clone screen; also called active C1s; native C1s protein
- T1 sequence: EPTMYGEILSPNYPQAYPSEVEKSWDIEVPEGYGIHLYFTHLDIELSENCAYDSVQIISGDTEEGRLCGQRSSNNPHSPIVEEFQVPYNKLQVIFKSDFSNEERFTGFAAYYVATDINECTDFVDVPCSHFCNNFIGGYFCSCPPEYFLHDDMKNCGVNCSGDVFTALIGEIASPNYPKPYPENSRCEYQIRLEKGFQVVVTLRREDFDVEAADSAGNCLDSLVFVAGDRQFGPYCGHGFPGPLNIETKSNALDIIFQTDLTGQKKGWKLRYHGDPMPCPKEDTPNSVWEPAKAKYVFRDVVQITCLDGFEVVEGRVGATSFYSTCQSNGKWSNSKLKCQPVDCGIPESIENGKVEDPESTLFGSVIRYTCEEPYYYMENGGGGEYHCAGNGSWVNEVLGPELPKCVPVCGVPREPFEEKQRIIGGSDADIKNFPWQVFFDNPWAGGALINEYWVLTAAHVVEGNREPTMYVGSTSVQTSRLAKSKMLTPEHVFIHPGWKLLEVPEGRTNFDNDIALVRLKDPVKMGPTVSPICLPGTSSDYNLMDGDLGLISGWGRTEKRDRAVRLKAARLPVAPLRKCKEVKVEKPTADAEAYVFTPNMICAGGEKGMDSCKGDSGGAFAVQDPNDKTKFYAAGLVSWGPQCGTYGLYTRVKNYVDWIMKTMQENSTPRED
- assay procedure: bio-layer interferometry (BLI), kinetic analysis
Recorded measurements of kon, one per entry
Kindly provide the numeric value in M⁻¹ s⁻¹ only, without the unit symbol.

Answered cases to consult:
{"binder": "antibody IPN-M27 (antibody, V domains shown, Mouse monoclonal antibody (NZBW hybridoma)) VH: QVQLQQSGAELVRPGASVKLSCKVSGYTFTRYWMHWVKQRPGQGLEWIGEINPSNSDTDYNEEFKSKATLTVDKSSSTAYMHLSNLTSEDSAVYYCTIDDSAYGWFAYWGQGTLVTVSA VL: DIVLTQSTAIMSASPGERVTMTCSASSSISYMHWYHQKPGTSPKRWIYDTSKLASGVPARFSGSGSGTSYSLAISSMEAEDAATYYCHQRSSFPTFGAGTKLELK", "kon [M⁻¹ s⁻¹]": 664000}
{"binder": "antibody IPN-M23 (antibody, V domains shown, Mouse monoclonal antibody (NZBW hybridoma)) VH: QVQLQQPGAELVRPGASVKLSCKVSGYTFTRYWMHWVKQRPGQGLEWIGEINPSNSDTDYNEEFKSKATLTVDKSSSTAYMHLSSLTSEDSAVYYCTIDDSVYGWFAYWGQGTLVTVSA VL: DIVMTQSPAIMFASPGERVTMTCSASSSISYMPWYPQKPGPSPKRWIYDTSKLASGVPARFSGSGFGTFYSLTISSMEAEDAAPYYCHQRSSFPPFGAGTKLELK", "kon [M⁻¹ s⁻¹]": 619000}

Consider the record given below.
Look up and report measured kon for this entry: antibody IPN-M9 (antibody, V domains shown, Mouse monoclonal antibody (NZBW hybridoma)) VH: QVQLQQPGAELVRPGASVKLSCKVSGYTFTRYWMHWVKQRPGQGLEWIGEINPSNSDTDYNEEFKSKATLTVDKSSSTAYMHLSSLTSEDSAVYYCTIDDSAYGWFAYWGQGTLVTVSA VL: DIVMTQSPAIMSASPGERVTMTCSASSSISYMHWYHQKPGTSPKRWIYDTSKLASGVPARFSGSGSGTSYSLTISSMEAEDAATYYCHQRSSFPTFGAGTKLELK 594000
